target-system: T1, recombinant PfPFD3 (6x-His-PfPFD3) (P. falciparum 3D7, UniProt Q8IBR6 1-192, RED-NHS dye label where it was the labelled protein in MST)
T1 construct: Prefoldin subunit 3 of P. falciparum 3D7, PF3D7_0718500; CDS amplified from Pf3D7 cDNA; Resolved at 24 kDa on SDS-PAGE; Unlabelled when titrated onto labelled PfPFD5; also called rPfPFD3; Prefoldin subunit 3; source: E. coli BL21 (λDE3), pET-28a(+), purified (Ni-NTA)
T1 sequence: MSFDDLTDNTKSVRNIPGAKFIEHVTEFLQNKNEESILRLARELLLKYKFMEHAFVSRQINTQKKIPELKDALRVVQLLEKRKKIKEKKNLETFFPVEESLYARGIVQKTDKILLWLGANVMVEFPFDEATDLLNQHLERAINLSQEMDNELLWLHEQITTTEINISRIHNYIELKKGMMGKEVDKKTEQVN
assay-protocol: MST; Monolith NT.115; PfPFD3 or PfPFD5 labelled with RED-NHS dye, titrated with the other PfPFD subunits; 1× PBS pH 7.5, 0.01% tween-20; 10 min at room temperature; steady-state analysis
run-conditions: both partners purified
pKd: −log10 of the molar value.
value-type: pKd

1) recombinant PfPFD4 (6x-His-PfPFD4) (natural protein, Prefoldin subunit 4 of P. falciparum 3D7, PF3D7_0904500; CDS amplified from Pf3D7 cDNA; Resolved at 17 kDa on SDS-PAGE; also called rPfPFD4; Prefoldin subunit 4; source: E. coli BL21 (λDE3), pET-28a(+), purified (Ni-NTA)) MGDIKQNKYDLGLDMTVDDQKKIGKFTNLHYKEPLYEHKIKMMKENIMNIDSSIDEVSLAFDSNDIMLNIGDCFFKFDLDYIEEHLEDRKSEELANLNEMELEYKTKLNEKQKLKTELYAKFGNRIDLN :: 4.95
2) recombinant PfPFD2 (6x-His-PfPFD2) (natural protein, Prefoldin subunit 2 of P. falciparum 3D7, PF3D7_1416900; CDS amplified from Pf3D7 cDNA; Resolved at 19 kDa on SDS-PAGE; also called rPfPFD2; Prefoldin subunit 2; source: E. coli BL21 (λDE3), pET-28a(+), purified (Ni-NTA)) METKSNVESPNISEPKESKLTYEQIEKDRVQLVSKIEELYQDVVEHKLVLEALENVPSDRRCYRMVGEVLVERTVGEIKPALMDHKNKVEQVIAECQKQLDQKNNEISNFIKSAKAGNLPGGIINGNPSEDTNNLNDKEKKSDGIIF :: 6.17
3) recombinant PfPFD1 (6x-His-PfPFD1) (natural protein, Prefoldin subunit 1 of P. falciparum 3D7, PF3D7_1107500; CDS amplified from Pf3D7 cDNA; Resolved at 20 kDa on SDS-PAGE; also called rPfPFD1; Prefoldin subunit 1; source: E. coli BL21 (λDE3), pET-28a(+), purified (Ni-NTA)) MSNLYDILGKAVINKEKKDEFQNLILKSEGFIDDVLHEKLRERQKKRDEILQDLFDMEILIENLKLFVNMKDKSEVETLTSLGCDSYVYADIINKNKIFIQLGYEFYLEMTLEEAIKFLKKKINLYEEKLSYWNKQISHVKAHIQILMRAISNLT :: 7.09
4) recombinant PfPFD6 (6x-His-PfPFD6) (natural protein, Prefoldin subunit 6 of P. falciparum 3D7, PF3D7_0512000; CDS amplified from Pf3D7 cDNA; Resolved at 16 kDa on SDS-PAGE; also called rPfPFD6; Prefoldin subunit 6; source: E. coli BL21 (λDE3), pET-28a(+), purified (Ni-NTA)) MSQEKISEIIKDISALKTSCEKLNSQLDELITQKVENEMLLEEVKVLEDDSVLHKLVGLVLVKEEKSKCYDTISRRLQYITGEIENRKKVITNSEEKLRKLFSDLEAHAGQRKIPVPQA :: 5.73
